Hello, the source for this data is patent US9296741B2, in case you need it.

- Assay System: human BRD4 second bromodomain (BDII_E352-M457) (Homo sapiens (Human), UniProt O60885)
- Assay Notes: TR-FRET bromodomain binding assay, BRD4 second bromodomain
Measured Metric: pKi
# log scale: pKi equals minus log10 of the concentration in mol/L

Below are worked cases with known answers.
# Compound, pKi
data = [
    ("Cn1cc(-c2cc(CS(=O)(=O)c3ccccc3)ccc2Oc2ccc(F)cc2F)c2cc[nH]c2c1=O", 7.19),
    ("CCS(=O)(=O)c1ccc(O[C@H]2CC[C@@](C)(OC)CC2)c(-c2cn(C)c(=O)c3[nH]ccc23)c1", 9.24),
    ("CCS(=O)(=O)c1ccc(NC2CC2)c(-c2cn(C)c(=O)c3[nH]ccc23)c1", 8.38),
    ("CCNC(=O)c1cc2c(-c3cc(NS(C)(=O)=O)ccc3Oc3ccccc3)cn(C)c(=O)c2[nH]1", 8.96),
    ("CN(C)S(=O)(=O)c1ccc(OCC2CC2)c(-c2cn(C)c(=O)c3[nH]ccc23)c1", 8.89),
    ("CN(C)CCNC(=O)c1ccc(Oc2ccc(F)cc2F)c(-c2cn(C)c(=O)c3[nH]ccc23)c1", 7.22),
    ("CN1CCN(Cc2cc3c(-c4cc(S(C)(=O)=O)ccc4Oc4ccc(F)cc4F)cn(C)c(=O)c3[nH]2)CC1", 6.97),
    ("Cc1ccc(Oc2ccc(S(C)(=O)=O)cc2-c2cn(C)c(=O)c3[nH]ccc23)cc1", 8.36),
]

Task item: Print human BRD4 second bromodomain (BDII_E352-M457) (Homo sapiens (Human), UniProt O60885) pKi for "Cn1cc(-c2cc(S(C)(=O)=O)ccc2Oc2ccc(Cl)cc2)c2cc[nH]c2c1=O" .
Reply: 7.88

###

- Assay System: human BRD4 second bromodomain (BDII_E352-M457) (Homo sapiens (Human), UniProt O60885)
- Assay Notes: TR-FRET bromodomain binding assay, BRD4 second bromodomain
pKi: −log10 of the molar value.
Lab note: compare pKi against 7. Equal or greater, write 1.0. Smaller, write 0.0.

Look over these answered cases.
# Molecule, Qualitative Label
records = [
    ("CCCS(=O)(=O)Nc1ccc(Oc2ccc(F)cc2F)c(-c2cn(C)c(=O)c3[nH]ccc23)c1 [Example 115]", 1.0),
    ("Cn1cc(-c2cc(S(C)(=O)=O)ccc2OCCN2CCOCC2)c2cc[nH]c2c1=O [Example 227]", 0.0),
    ("Cn1cc(-c2cc(CCO)ccc2OCc2ccccc2)c2cc[nH]c2c1=O [Example 44]", 0.0),
    ("Cn1cc(-c2cc(S(N)(=O)=O)ccc2Oc2ccc(F)cc2F)c2cc[nH]c2c1=O [Example 146]", 1.0),
]

Task item: Check the entry Cn1cc(-c2cc(NS(C)(=O)=O)ccc2Oc2ccccc2)c2cc(C(=O)O)[nH]c2c1=O [Example 70] : does pKi equal or exceed 7?
Reply: 1.0

###

- Assay Notes: Mouse liver microsome stability assay
- Type: in vitro ADME
- Run Conditions: male, CD1, mouse, microsomes, pH 7.4
Measured Metric: half-life at 0.5 μM (min)
Use min as the unit, but write only the number.

Below are worked cases with known answers.
# Molecule Smiles, Measured Metric, Data Value
records = [
    ("Cn1cc(-c2cc(S(N)(=O)=O)ccc2NCC2CC2)c2cc[nH]c2c1=O", "half-life at 0.5 μM", 63),
    ("Cn1cc(-c2cc(S(=O)(=O)N3CCC(O)CC3)ccc2OCC2CC2)c2cc[nH]c2c1=O", "half-life at 0.5 μM", 24),
    ("Cn1cc(-c2cc(NS(=O)(=O)C3CC3)ccc2Oc2ccc(F)cc2F)c2cc[nH]c2c1=O", "half-life at 0.5 μM", 22),
    ("CCCS(=O)(=O)Nc1ccc(Oc2ccc(F)cc2F)c(-c2cn(C)c(=O)c3[nH]ccc23)c1", "half-life at 0.5 μM", 55),
    ("Cn1cc(-c2ccc(OCC3CC3)c(-c3cn(C)c(=O)c4[nH]ccc34)c2)cn1", "half-life at 0.5 μM", 13),
]

From here, focus on the item given below.
Task item: Please give measured half-life at 0.5 μM of the following entry: "Cn1cc(-c2cc(S(=O)(=O)Nc3ccccc3)ccc2OCC2CC2)c2cc[nH]c2c1=O"
Reply: 3
